# test: Half life in rat liver S9 fraction at 1 uM by LC-MS/MS analysis
# Assay type: ADME, subcellular
recorded-metric: half-life at 1 µM (min)

chemical-string: Cc1cncc(Cc2ccc(-c3ccccc3)nc2)c1
unit-text: min
endpoint-value: 16

---

# target-or-test-system: Cytochrome P450 11B2, mitochondrial (Homo sapiens)
# Sequence (P19099 whole entry): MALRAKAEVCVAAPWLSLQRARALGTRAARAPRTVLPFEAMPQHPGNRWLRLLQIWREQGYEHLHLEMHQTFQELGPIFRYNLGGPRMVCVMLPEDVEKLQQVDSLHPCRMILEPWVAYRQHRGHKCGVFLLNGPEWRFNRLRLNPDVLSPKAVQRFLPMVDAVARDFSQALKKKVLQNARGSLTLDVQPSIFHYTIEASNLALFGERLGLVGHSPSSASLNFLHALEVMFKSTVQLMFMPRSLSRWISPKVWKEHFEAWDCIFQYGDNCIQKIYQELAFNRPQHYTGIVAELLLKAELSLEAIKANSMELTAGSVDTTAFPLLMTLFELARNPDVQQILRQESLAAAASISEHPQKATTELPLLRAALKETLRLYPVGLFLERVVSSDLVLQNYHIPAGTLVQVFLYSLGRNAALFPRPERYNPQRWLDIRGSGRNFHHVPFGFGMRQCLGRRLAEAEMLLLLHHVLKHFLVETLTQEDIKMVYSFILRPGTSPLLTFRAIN
# test: Inhibition of human CYP11B2 expressed in hamster V79MZh cells using [1,2-3H]-11-deoxycorticosterone as substrate
recorded-metric: IC50 (nM)

compound: c1ccc(-c2ccc(C(C3CC3)n3ccnc3)cn2)cc1 (stereo not given)
recorded-metric: IC50
endpoint-value: 25
//
compound: Fc1cncc(Cc2ccc(-c3ccccc3)nc2)c1
recorded-metric: IC50
endpoint-value: 419
//
compound: CC(c1ccc(-c2ccsc2)nc1)n1ccnc1 (stereo not given)
recorded-metric: IC50
endpoint-value: 151
//
compound: c1cn(Cc2ccc(-c3ccsc3)nc2)cn1
recorded-metric: IC50
endpoint-value: 1020
//
compound: Oc1cncc(Cc2ccc(-c3ccccc3)nc2)c1
recorded-metric: IC50
endpoint-value: 836
